MIC: recorded values
- Test system: Staphylococcus aureus
- Protocol Notes: Antibacterial activity against methicillin-resistant Staphylococcus aureus H 5996/08 after 48 hrs by microdilution broth method
- Format: functional
- Assay Setup: H 5996/08, 48 h
Reported Endpoint: MIC (µM)

{"Smiles Entry": "O=C(Nc1cccc(F)c1)c1ccc([N+](=O)[O-])cc1O", "Recorded Number": 31.2}
{"Smiles Entry": "O=C(Nc1cccc(I)c1)c1ccc([N+](=O)[O-])cc1O", "Recorded Number": 3.9}
{"Smiles Entry": "O=C(Nc1ccc([N+](=O)[O-])cc1)c1ccc([N+](=O)[O-])cc1O", "Recorded Number": 31.2}
{"Smiles Entry": "O=C(Nc1ccc(C(F)(F)F)cc1)c1ccc([N+](=O)[O-])cc1O", "Recorded Number": 1.95}

---

- System: Staphylococcus aureus
- Protocol Notes: Antibacterial activity against methicillin-resistant Staphylococcus aureus H 5996/08 after 48 hrs by microdilution broth method
- Format: functional
- Assay Setup: H 5996/08, 48 h
Note to self: MIC under 8 µM means 1, ties and anything higher get 0.

{"Compound": "O=C(Nc1cc(C(F)(F)F)cc(C(F)(F)F)c1)c1ccc([N+](=O)[O-])cc1O", "Tested Target": "Staphylococcus aureus", "Category": 1}
{"Compound": "O=C(Nc1ccc([N+](=O)[O-])c(C(F)(F)F)c1)c1ccc([N+](=O)[O-])cc1O", "Tested Target": "Staphylococcus aureus", "Category": 1}
{"Compound": "O=C(Nc1cccc(Cl)c1)c1ccc([N+](=O)[O-])cc1O", "Tested Target": "Staphylococcus aureus", "Category": 0}
{"Compound": "O=C(Nc1ccc(Cl)c(Cl)c1)c1cc([N+](=O)[O-])ccc1O", "Tested Target": "Staphylococcus aureus", "Category": 0}
{"Compound": "CC1(C)S[C@@H]2[C@H](NC(=O)Cc3ccccc3)C(=O)N2[C@H]1C(=O)O [PENICILLIN G]", "Tested Target": "Staphylococcus aureus", "Category": 0}
{"Compound": "O=C(Nc1cccc(C(F)(F)F)c1)c1ccc([N+](=O)[O-])cc1O", "Tested Target": "Staphylococcus aureus", "Category": 1}

---

- Test system: Lichtheimia corymbifera
- Protocol Notes: Antifungal activity against Absidia corymbifera 272 after 24 hrs by microdilution broth method
- Assay type: functional
- Assay Setup: Lichtheimia corymbifera, 272, 24 h
Reported Endpoint: MIC

{"Smiles Entry": "O=C(Nc1ccc([N+](=O)[O-])cc1)c1ccc([N+](=O)[O-])cc1O", "Result": "> 500 µM"}
{"Smiles Entry": "O=C(Nc1ccc([N+](=O)[O-])c(C(F)(F)F)c1)c1cc([N+](=O)[O-])ccc1O", "Result": "> 500 µM"}
{"Smiles Entry": "O=C(Nc1ccc([N+](=O)[O-])cc1)c1cc([N+](=O)[O-])ccc1O", "Result": "> 500 µM"}
{"Smiles Entry": "O=C(Nc1cccc([N+](=O)[O-])c1)c1cc([N+](=O)[O-])ccc1O", "Result": "> 250 µM"}
{"Smiles Entry": "O=C(Nc1cccc(Cl)c1)c1cc([N+](=O)[O-])ccc1O", "Result": "> 500 µM"}
{"Smiles Entry": "O=C(Nc1cc(C(F)(F)F)cc(C(F)(F)F)c1)c1ccc([N+](=O)[O-])cc1O", "Result": "> 500 µM"}
{"Smiles Entry": "O=C(Nc1cccc([N+](=O)[O-])c1)c1ccc([N+](=O)[O-])cc1O", "Result": "> 250 µM"}
{"Smiles Entry": "O=C(Nc1cccc(F)c1)c1cc([N+](=O)[O-])ccc1O", "Result": "> 500 µM"}
{"Smiles Entry": "O=C(Nc1cccc(I)c1)c1ccc([N+](=O)[O-])cc1O", "Result": "> 500 µM"}
{"Smiles Entry": "OC(Cn1cncn1)(Cn1cncn1)c1ccc(F)cc1F", "Result": "> 500 µM"}
{"Smiles Entry": "O=C(Nc1ccc([N+](=O)[O-])c(C(F)(F)F)c1)c1ccc([N+](=O)[O-])cc1O", "Result": "125 µM"}
{"Smiles Entry": "O=C(Nc1cc(C(F)(F)F)cc(C(F)(F)F)c1)c1cc([N+](=O)[O-])ccc1O", "Result": "> 500 µM"}
{"Smiles Entry": "O=C(Nc1ccc(Cl)c(Cl)c1)c1cc([N+](=O)[O-])ccc1O", "Result": "> 500 µM"}
{"Smiles Entry": "O=C(Nc1cccc(Cl)c1)c1ccc([N+](=O)[O-])cc1O", "Result": "62.5 µM"}
{"Smiles Entry": "O=C(Nc1ccc(Cl)c(Cl)c1)c1ccc([N+](=O)[O-])cc1O", "Result": "31.2 µM"}

---

Listed here are compounds together with their documented MIC.
- Tested on: Klebsiella pneumoniae
- Protocol Notes: Antibacterial activity against Klebsiella pneumoniae D 11750/08 after 48 hrs by microdilution broth method
- Type: functional
- Assay Setup: D 11750/08, 48 h

{"Smiles Entry": "O=C(Nc1ccc([N+](=O)[O-])c(C(F)(F)F)c1)c1cc([N+](=O)[O-])ccc1O", "MIC": "> 500 µM"}
{"Smiles Entry": "O=C(Nc1ccc(Cl)c(Cl)c1)c1cc([N+](=O)[O-])ccc1O", "MIC": "> 500 µM"}
{"Smiles Entry": "O=C(Nc1cccc(Cl)c1)c1cc([N+](=O)[O-])ccc1O", "MIC": "> 500 µM"}
{"Smiles Entry": "CC1(C)S[C@@H]2[C@H](NC(=O)Cc3ccccc3)C(=O)N2[C@H]1C(=O)O", "MIC": "500 µM"}
